System: SF-268 CNS
MEASUREMENT PROTOCOL: NCI tumour cell line growth inhibition, 48 h; in the data active = GI50 below about 0.43 µM; inactive = the rest
Outcome codes: 1.0 for active, 0.0 for inactive

{"columns": ["MOLECULE", "CLASSIFICATION"],
 "data": [
  ["O=C(O)c1cc2cc(O)ccc2[nH]1", 0.0],
  ["c1ccc2c(-c3cnn4cc(-c5ccc(N6CCNCC6)cc5)cnc34)ccnc2c1", 0.0],
  ["C=C(CN(C)Cc1ccccc1)c1ccc(C(=O)Nc2ccccc2N)cc1", 0.0],
  ["Clc1ccc(N/N=C(\\c2ccccc2)c2ccccn2)nc1", 1.0],
  ["O=C(Nc1nc(-c2ccccc2)cs1)c1cc(O)c(O)c(O)c1", 0.0],
  ["CC(=O)N1N=C(c2ccc(Nc3nc(Nc4ccc(F)cc4)nc(Nc4ccc(Cl)cc4)n3)cc2)CC1c1ccc(N(C)C)cc1 (stereo not drawn)", 0.0],
  ["O=C(NCCNC(=O)c1ccc(F)cc1)Nc1ccc(-n2cc(-c3ccncc3)c(-c3ccc(Cl)c(O)c3)n2)cc1", 0.0],
  ["C[n+]1cc2cc3c(cc2c2ccccc21)OCO3", 0.0]
]}

###

System: HOP-92 NSCLC
MEASUREMENT PROTOCOL: NCI tumour cell line growth inhibition, 48 h
Recorded TGI by entry

{"columns": ["COMPOUND", "TGI"],
 "data": [
  ["Cc1ccc(S(=O)(=O)N[C@@H](Cc2ccccc2)C(=O)CCl)cc1", "12 µM"],
  ["[O-]/[N+](=N/c1ncc(-c2ccccc2)cn1)c1ncc(-c2ccccc2)cn1", "> 100 µM"],
  ["CC(=O)C(N=NC1CCC(S(=O)(=O)NB2N=CS2)CC1)C(=O)Nc1ccccc1C (configuration not stated)", "34.3 µM"],
  ["OCCSCC/C(=N\\N=C(/CCSCCO)c1ccccc1)c1ccccc1", "> 100 µM"],
  ["COc1ccc(C(c2cc(OC)c(OC)c(OC)c2)N2C(=O)CCC2C(=O)O)cc1 (configuration not stated)", "> 100 µM"],
  ["Nc1ccc(S(=O)(=O)NCCS(=O)(=O)O)cc1", "> 100 µM"],
  ["COC(=O)/C(C#N)=C(/NCc1ccccc1)Nc1ccccc1", "> 100 µM"],
  ["C/C(=C(/C)c1cc[n+](C)cc1)c1cc[n+](C)cc1", "> 75 µM"],
  ["CC1NCCc2c1[nH]c1cc(O)ccc21 (configuration not stated)", "> 100 µM"],
  ["CCOC(=O)Nc1ccc(C(=O)/C=C/c2ccccc2)cc1", "66.5 µM"],
  ["COc1cccc(N2C(=O)C3c4[nH]c5ccc(C)cc5c4C4CCC(C)CC4C3C2=O)c1 (configuration not stated)", "> 100 µM"],
  ["CN(C)CCCN1c2ccc(O)cc2Sc2ccc(Cl)cc21", "17.2 µM"],
  ["NC(=S)N/N=C1\\CC(c2ccccc2)Nc2ccccc21 (configuration not stated)", "57.5 µM"],
  ["O=C(/N=C1/OC(CN2CCOCC2)CN1C(=O)Nc1ccccc1)Nc1ccccc1 (configuration not stated)", "> 100 µM"],
  ["CC(C)=CC[C@H]1C[C@@]2(CC=C(C)C)C(=O)/C(=C(/O)c3ccccc3)C(=O)[C@](CC=C(C)C)(C2=O)C1(C)C", "19.1 µM"],
  ["COCCNC1CCC(=O)c2[nH]c3ccccc3c21 (configuration not stated)", "> 100 µM"],
  ["C=CC[C@@]12CCC(=O)C=C1CCCC2=O", "> 100 µM"],
  ["CC(C)(C)OC(=O)NC(Cc1ccc(OCc2ccccc2)cn1)C(=O)O (configuration not stated)", "> 100 µM"],
  ["OCc1ncc(-c2ccccc2)s1", "> 100 µM"],
  ["COc1ccc2c(c1)C(=O)c1c-2n(CCCN=[N+]=[N-])c(=O)c2cc(N)ccc12", "> 100 µM"],
  ["Cc1cc(Cl)cc2c1NC(=O)C2(O)CC(=O)c1ccc(F)cc1 (configuration not stated)", "> 100 µM"],
  ["COc1cc(/C=C2\\CCCC3=C2N=C2SC(C)=CN2C3c2cc(OC)c(OC)c(OC)c2)cc(OC)c1OC (configuration not stated)", "4.27 µM"]
]}
